Target: BuChE (Equus caballus, UniProt P81908)
Construct: The enzymes AChE and BuChE were obtained from electric eel and equine serum, respectively; from tissue; host or cells: equine serum
Sequence (P81908 whole entry): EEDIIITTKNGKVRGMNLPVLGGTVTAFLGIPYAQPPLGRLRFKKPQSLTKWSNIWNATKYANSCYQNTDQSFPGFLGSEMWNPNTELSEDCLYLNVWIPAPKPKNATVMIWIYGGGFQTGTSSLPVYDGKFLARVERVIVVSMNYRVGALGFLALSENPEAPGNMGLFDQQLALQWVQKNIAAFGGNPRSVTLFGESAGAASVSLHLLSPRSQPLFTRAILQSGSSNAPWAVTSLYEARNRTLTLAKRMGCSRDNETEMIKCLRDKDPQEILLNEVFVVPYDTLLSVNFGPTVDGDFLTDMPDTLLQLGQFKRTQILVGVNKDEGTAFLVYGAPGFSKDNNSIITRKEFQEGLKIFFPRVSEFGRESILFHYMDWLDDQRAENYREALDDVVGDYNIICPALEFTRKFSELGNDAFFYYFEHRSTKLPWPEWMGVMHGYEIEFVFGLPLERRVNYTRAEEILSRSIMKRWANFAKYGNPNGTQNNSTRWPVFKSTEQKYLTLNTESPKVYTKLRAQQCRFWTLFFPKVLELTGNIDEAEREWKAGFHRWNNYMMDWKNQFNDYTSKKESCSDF
Assay: biochemical
Quantity: IC50

## Input Requested read-out IC50, target or system BuChE (Equus caballus, UniProt P81908), entry O=C(/C=C/c1ccc([N+](=O)[O-])cc1)CC(=O)/C=C/c1ccc([N+](=O)[O-])cc1 [Compound 1f]
## Output 9.66 µM

---

Tested on: scopolamine-induced amnesic mice
Assay: Novel object recognition test (NORT), scopolamine-induced amnesia
Assay type: in vivo
Settings: long-term memory (after 24 h), 15 mg/kg

- Mol Smiles: "O=C(/C=C/c1ccccc1)CC(=O)/C=C/c1ccccc1"
  discrimination index (DI): "no significant change"
- Mol Smiles: "O=C(/C=C/c1ccc([N+](=O)[O-])cc1)CC(=O)/C=C/c1ccc([N+](=O)[O-])cc1"
  discrimination index (DI): "no significant change"
- Mol Smiles: "CN(C)c1ccc(/C=C/C(=O)CC(=O)/C=C/c2ccc(N(C)C)cc2)cc1"
  discrimination index (DI): "no significant change"
